The origin of these recorded values is ChEMBL document CHEMBL3603839.

Tested on: BALB/3T3
Test: Antiproliferative activity against mouse BALB/3T3 cells after 72 hrs
Assay type: cell-based
Details: BALB/3T3, 72 h
Items are presented alongside their recorded IC50.
recordedMetric: IC50 (µM)

smilesData	number
CC[C@@H](C(=O)[C@@H](C)[C@@H](O)[C@H](C)[C@@H]1O[C@@H]([C@@H](CC)C(=O)NCC(=O)OC)CC[C@@H]1C)[C@H]1O[C@]2(C=C[C@@H](O)[C@]3(CC[C@@](C)([C@H]4CC[C@](O)(CC)[C@H](C)O4)O3)O2)[C@H](C)C[C@@H]1C	42.5
COc1cccc2c1C(=O)c1c(O)c3c(c(O)c1C2=O)C[C@@](O)(C(=O)CO)C[C@@H]3O[C@H]1C[C@H](N)[C@H](O)[C@H](C)O1	0.31
CC[C@@H](C(=O)[C@@H](C)[C@@H](O)[C@H](C)[C@@H]1O[C@@H]([C@@H](CC)C(=O)N[C@@H](CO)C(=O)OC)CC[C@@H]1C)[C@H]1O[C@]2(C=C[C@@H](O)[C@]3(CC[C@@](C)([C@H]4CC[C@](O)(CC)[C@H](C)O4)O3)O2)[C@H](C)C[C@@H]1C	40.1
CC[C@@H](C(=O)[C@@H](C)[C@@H](O)[C@H](C)[C@@H]1O[C@@H]([C@@H](CC)C(=O)N[C@@H](Cc2ccc(O)cc2)C(=O)OC)CC[C@@H]1C)[C@H]1O[C@]2(C=C[C@@H](O)[C@]3(CC[C@@](C)([C@H]4CC[C@](O)(CC)[C@H](C)O4)O3)O2)[C@H](C)C[C@@H]1C	43.4
